// provenance: ChEMBL document CHEMBL2069278

test system: HCT-116; experiment: Cytotoxicity against human HCT116 cells after 72 hrs by MTT assay; type: functional, cell-based; conditions: HCT-116, 72 h
quantity: IC50 (nM)
Reply numerically in nM, unit not repeated.

inputSmiles	IC50 (nM)
O=c1[nH]c2ccccc2c2c1sc1cc(C3=NCCN3)ccc12	1300

Request: Report IC50 for CCOC(=O)c1ccc2c(Cl)c(C(=O)Nc3ccc(C(=O)NCCCN(C)C)cc3)sc2c1 please.
Response: 3000

Request: Report IC50 for Cn1c(=O)c2sc3sccc3c2c2cc(C3=NCCN3)ccc21 please.
Response: 1000

Request: Report IC50 for CN(C)CCCNC(=O)c1ccc2[nH]c(=O)c3sc4cc([N+](=O)[O-])ccc4c3c2c1 please.
Response: 2000

* * *

test system: Nucleic Acid; assay: Binding affinity to calf thymus DNA assessed as change in melting temperature at drug/base pair ratio of 0.25 by UV-visible spectrophotometric analysis; type: nucleic-acid assay; conditions: Bos taurus
ΔTm of 20 °C or higher: Y. Under 20 °C: N.

Request: Check if ΔTm >= 20 °C (inclusive). Item: Cn1c(=O)c2sc3ccccc3c2c2cc(C3=NCCN3)ccc21
Response: N

Request: Check if ΔTm >= 20 °C (inclusive). Item: O=C(Nc1ccc(C2=NCCN2)cc1)c1sc2ccccc2c1Cl
Response: N

Request: Check if ΔTm >= 20 °C (inclusive). Item: O=c1[nH]c2ccc(C3=NCCN3)cc2c2c1sc1ccccc12
Response: N

Request: Check if ΔTm >= 20 °C (inclusive). Item: O=C(Nc1ccccc1)c1sc2cc(C3=NCCN3)ccc2c1Cl
Response: N

Request: Check if ΔTm >= 20 °C (inclusive). Item: O=c1[nH]c2ccccc2c2c1sc1cc(C3=NCCN3)ccc12
Response: N

Request: Check if ΔTm >= 20 °C (inclusive). Item: O=C(Nc1ccc(C2=NCCN2)cc1)c1sc2cc(C3=NCCN3)ccc2c1Cl
Response: Y

Request: Check if ΔTm >= 20 °C (inclusive). Item: O=c1[nH]c2ccc(C3=NCCN3)cc2c2c1sc1cc(C3=NCCN3)ccc12
Response: Y

* * *

system: Nucleic Acid; experiment: Binding affinity to AT rich site of Pvu2 DNA by densitometric analysis; assay type: nucleic-acid assay
Activity calls are given as the source filed them. No cut-off for these calls is given here.
Returns: one label drawn from True = active, False = inactive

Some solved entries appear below for comparison.
inputSmiles	answerLabel
O=C(Nc1ccc(C2=NCCN2)cc1)c1sc2cc(C3=NCCN3)ccc2c1Cl	True
Cn1c(=O)c2sc3ccccc3c2c2cc(C3=NCCN3)ccc21	False
O=C(Nc1ccccc1)c1sc2cc(C3=NCCN3)ccc2c1Cl	False
O=c1[nH]c2ccc(C3=NCCN3)cc2c2c1sc1cc(C3=NCCN3)ccc12	False
O=c1[nH]c2ccccc2c2c1sc1cc(C3=NCCN3)ccc12	False
O=c1[nH]c2ccc(C3=NCCN3)cc2c2c1sc1ccccc12	False

Please turn your attention to the following entry.
Request: # outcome recorded in this test, key = O=C(Nc1ccc(C2=NCCN2)cc1)c1sc2ccccc2c1Cl
Response: False

* * *

test system: HCT-116; assay: Cytotoxicity against human HCT116 cells after 72 hrs by MTT assay; format: functional, cell-based; conditions: HCT-116, 72 h
quantity: IC50 (nM)
Reply numerically in nM, unit not repeated.

Request: Report IC50 for Cc1ccc2c(c1)sc1c(=O)[nH]c3ccc(C(=O)NCCCN(C)C)cc3c12 please.
Response: 1000

Request: Report IC50 for O=C(Nc1ccc(C2=NCCN2)cc1)c1sc2ccccc2c1Cl please.
Response: 1800

Request: Report IC50 for CCOC(=O)c1ccc2c(c1)sc1c(=O)[nH]c3ccc(C(=O)NCCCN(C)C)cc3c12 please.
Response: 2000

Request: Report IC50 for CN(C)CCCNC(=O)c1ccc2[nH]c(=O)c3sc4ccccc4c3c2c1 please.
Response: 1000

Request: Report IC50 for O=c1[nH]c2ccc(C3=NCCN3)cc2c2c1sc1ccccc12 please.
Response: 900

Request: Report IC50 for O=C(Nc1ccc(C2=NCCN2)cc1)c1sc2cc(C3=NCCN3)ccc2c1Cl please.
Response: 1700

Request: Report IC50 for Cc1ccc2c(Cl)c(C(=O)Nc3ccc(C(=O)NCCCN(C)C)cc3)sc2c1 please.
Response: 3000

Request: Report IC50 for CN(C)CCCNC(=O)c1ccc(NC(=O)c2sc3cc(Br)ccc3c2Cl)cc1 please.
Response: 2000

Request: Report IC50 for CN(C)CCCNC(=O)c1ccc2[nH]c(=O)c3sc4cc(Br)ccc4c3c2c1 please.
Response: 400

Request: Report IC50 for CN(C)CCCNC(=O)c1ccc(NC(=O)c2sc3ccccc3c2Cl)cc1 please.
Response: 7000
